Below: a set of entries, each annotated with reported Ki.
biological target: Beta-1 adrenergic receptor (Rattus norvegicus, UniProt P18090)
Sequence (P18090 whole entry): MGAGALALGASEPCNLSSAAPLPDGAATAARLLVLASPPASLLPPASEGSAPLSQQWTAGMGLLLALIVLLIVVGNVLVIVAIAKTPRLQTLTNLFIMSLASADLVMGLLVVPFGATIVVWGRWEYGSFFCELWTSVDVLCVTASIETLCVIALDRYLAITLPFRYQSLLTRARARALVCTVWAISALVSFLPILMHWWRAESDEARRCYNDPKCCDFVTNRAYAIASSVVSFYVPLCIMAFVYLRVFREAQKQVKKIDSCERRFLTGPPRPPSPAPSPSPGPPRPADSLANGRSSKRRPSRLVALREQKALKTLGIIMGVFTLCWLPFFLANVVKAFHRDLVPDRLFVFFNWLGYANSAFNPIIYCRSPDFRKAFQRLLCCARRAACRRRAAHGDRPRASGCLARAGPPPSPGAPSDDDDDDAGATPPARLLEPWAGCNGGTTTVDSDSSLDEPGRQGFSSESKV
Number only, in nM; omit the unit.

Here's what some known entries look like.
>>> measured_value("C=CCNCC(O)COc1ccc2oc3ccccc3c(=O)c2c1.Cl (stereo unspecified)")
30900
>>> measured_value("C=CCNCC(O)COc1cccc2c(=O)c3ccccc3oc12.Cl (stereo unspecified)")
84
>>> measured_value("CC(CO)(CO)NCC(O)COc1cccc2c(=O)c3ccc(Cl)cc3oc12.Cl (stereo unspecified)")
47
>>> measured_value("CC(C)(CO)NCC(O)COc1cccc2c(=O)c3ccc(Cl)cc3oc12.Cl (stereo unspecified)")
11
>>> measured_value("CC(CO)(CO)NCC(O)COc1cccc2c(=O)c3ccccc3oc12.Cl (stereo unspecified)")
4

Report Ki from Beta-1 adrenergic receptor (Rattus norvegicus, UniProt P18090) testing of "C=CCNCCCOc1cccc2c(=O)c3ccccc3oc12.Cl"
7700
